Assay: Ratio of ED50 of taxol to ED50 from cytotoxicity against B16 melanoma cell lines
Format: functional
Property Name: Ratio
Lab note: jot down the number only; don't add units.

Query: Which Ratio reading was recorded for the compound `CC(=O)O[C@H]1C(=O)[C@@]2(C)[C@H]([C@H](OC(=O)c3ccccc3)[C@]3(O)C[C@H](OC(=O)[C@H](O)[C@@H](NC(=O)c4ccc(Cl)cc4)c4ccccc4)C(C)=C1C3(C)C)[C@]1(OC(C)=O)CO[C@@H]1C[C@@H]2O` ?
Result: 1.5
